Experimental target: T1, hVEGF-A (8-109) (human, UniProt P15692 214-315)
T1 construct: residue numbers count on mature VEGF-A; dimer
T1 sequence (looked up): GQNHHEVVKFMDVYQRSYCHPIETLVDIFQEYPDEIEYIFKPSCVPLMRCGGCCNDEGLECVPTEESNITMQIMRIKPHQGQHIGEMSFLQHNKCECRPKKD
Assay comment: spot phage ELISA

| Binder | S/N |
| --- | --- |
| GCQDPSLNWADYCKQDSDCLAGCVCQMHQSCG (designed binder) [VEGF_CKP7.50] | 14.3 |
| GCWDPTFNWALYCKQDSDCLAGCVCQMYDSCG (designed binder) [VEGF_CKP7.24] | 13.4 |
| GCQDPTLNWATYCKQDSDCLAGCVCQMYQSCG (designed binder) [VEGF_CKP7.43] | 6.3 |
| GCNIMLPFWGCGKDFHCLAGCVCQYYQSCG (designed binder) [VEGF_CKP9.54.56] | 35.8 |
